These measurements were taken from ChEMBL document CHEMBL1961873.

Test system: Homeodomain-interacting protein kinase 1 (Homo sapiens) (UniProt Q86Z02);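 further: each value is a mean percent inhibition of HIPK1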
Sequence (Q86Z02 whole entry, looked up): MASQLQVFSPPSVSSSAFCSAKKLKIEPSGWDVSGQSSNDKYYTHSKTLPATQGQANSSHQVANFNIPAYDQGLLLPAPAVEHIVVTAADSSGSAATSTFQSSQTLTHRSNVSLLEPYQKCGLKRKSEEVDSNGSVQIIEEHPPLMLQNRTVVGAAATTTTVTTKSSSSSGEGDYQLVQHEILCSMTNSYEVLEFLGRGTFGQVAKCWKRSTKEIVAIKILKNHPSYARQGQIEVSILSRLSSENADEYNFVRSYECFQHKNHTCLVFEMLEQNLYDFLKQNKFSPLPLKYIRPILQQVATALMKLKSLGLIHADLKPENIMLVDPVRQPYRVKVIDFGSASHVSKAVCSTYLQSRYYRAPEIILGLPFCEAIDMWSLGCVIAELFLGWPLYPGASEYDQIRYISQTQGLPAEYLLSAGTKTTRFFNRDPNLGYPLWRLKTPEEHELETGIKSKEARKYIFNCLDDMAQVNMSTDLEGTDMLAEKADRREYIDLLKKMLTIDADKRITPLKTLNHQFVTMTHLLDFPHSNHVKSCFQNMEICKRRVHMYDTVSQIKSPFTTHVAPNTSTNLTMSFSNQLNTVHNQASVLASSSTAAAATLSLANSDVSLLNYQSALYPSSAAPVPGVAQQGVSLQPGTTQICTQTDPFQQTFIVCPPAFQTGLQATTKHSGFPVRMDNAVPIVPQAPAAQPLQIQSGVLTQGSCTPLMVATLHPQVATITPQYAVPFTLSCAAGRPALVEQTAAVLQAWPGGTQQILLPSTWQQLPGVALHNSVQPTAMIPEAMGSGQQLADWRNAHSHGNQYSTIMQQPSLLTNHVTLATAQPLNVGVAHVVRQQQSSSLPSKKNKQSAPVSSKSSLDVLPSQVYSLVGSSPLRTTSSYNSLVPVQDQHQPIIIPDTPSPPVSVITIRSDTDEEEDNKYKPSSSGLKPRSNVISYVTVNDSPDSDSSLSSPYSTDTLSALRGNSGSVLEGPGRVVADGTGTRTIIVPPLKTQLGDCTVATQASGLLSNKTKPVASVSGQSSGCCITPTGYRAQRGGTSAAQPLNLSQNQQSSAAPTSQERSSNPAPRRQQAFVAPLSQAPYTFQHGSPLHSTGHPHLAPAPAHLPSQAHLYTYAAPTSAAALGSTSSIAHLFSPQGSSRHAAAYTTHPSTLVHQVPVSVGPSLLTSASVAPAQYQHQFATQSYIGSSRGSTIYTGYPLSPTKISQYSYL
Experimental setup: at 0.1 µM
Property name: inhibition (%)
Kindly answer with a numeric value in %, unit omitted.

A selection of reference data follows.
NCc1ccc(-n2c(-c3nonc3N)nc3cnccc32)cc1 | 1.51
FC(F)(F)c1cccc(Nc2nccc(-c3cnn4nc(-c5ccccc5)ccc34)n2)c1 | 7.68
NS(=O)(=O)c1ccc(N/N=C2\C(=O)Nc3ccc(C(=O)NCCCn4ccnc4)cc32)cc1 | 4.8
COc1cc(N2CCN(C(C)C)CC2)ccc1Nc1nc(Nc2ccc(F)cc2C(=O)NC[C@@H](O)CO)c2cc[nH]c2n1 | 9.42
NC(=O)c1cc(-c2ccc(F)cc2)cc(-c2ccncc2)c1N | 1.44

### Prompt inhibition of CNC(=O)c1cncc(/C=C/c2c(C)cccc2C)c1 on Homeodomain-interacting protein kinase 1 (Homo sapiens) (UniProt Q86Z02)?
### Response -0.47

### Prompt inhibition of C[C@@H](Oc1cc(-n2cnc3ccc(OCC4CCN(C)CC4)cc32)sc1C(N)=O)c1ccccc1Cl on Homeodomain-interacting protein kinase 1 (Homo sapiens) (UniProt Q86Z02)?
### Response -1.26

### Prompt inhibition of CCS(=O)(=O)c1ccc(OC)c(Nc2ncc(-c3ccccc3Cl)o2)c1 on Homeodomain-interacting protein kinase 1 (Homo sapiens) (UniProt Q86Z02)?
### Response 1.24

### Prompt inhibition of COc1ccc2ncn(-c3cc(O[C@H](C)c4ccccc4Cl)c(C(N)=O)s3)c2c1 on Homeodomain-interacting protein kinase 1 (Homo sapiens) (UniProt Q86Z02)?
### Response -4.71

### Prompt inhibition of COc1cccc(-n2cnc3c(N/N=C/c4ccncc4)ncnc32)c1 on Homeodomain-interacting protein kinase 1 (Homo sapiens) (UniProt Q86Z02)?
### Response -2.33

### Prompt inhibition of NC(=O)Cc1ccccc1Oc1nccc(-c2c(-c3ccc(F)cc3)ncn2C2CCNCC2)n1 on Homeodomain-interacting protein kinase 1 (Homo sapiens) (UniProt Q86Z02)?
### Response 0.04

### Prompt inhibition of C#Cc1cccc(Nc2ncnc3ccc(OCCCCNCCS(C)(=O)=O)cc23)c1 on Homeodomain-interacting protein kinase 1 (Homo sapiens) (UniProt Q86Z02)?
### Response -3.09

### Prompt inhibition of O=C(Nc1n[nH]c2cc(-c3cc(F)ccc3F)ccc12)C1CC1 on Homeodomain-interacting protein kinase 1 (Homo sapiens) (UniProt Q86Z02)?
### Response -1.3

### Prompt inhibition of O=C(Nc1ccc(Oc2ccc3[nH]c(NC(=O)c4ccccc4)nc3c2)cc1)Nc1cc(C(F)(F)F)ccc1F on Homeodomain-interacting protein kinase 1 (Homo sapiens) (UniProt Q86Z02)?
### Response -0.21

### Prompt inhibition of Fc1ccc(-c2ncn(C3CCNCC3)c2-c2ccnc(Oc3ccc(Oc4ccccc4)cc3)n2)cc1 on Homeodomain-interacting protein kinase 1 (Homo sapiens) (UniProt Q86Z02)?
### Response -1.61

### Prompt inhibition of Nc1nccc(-c2c(-c3ccc(F)cc3)ncn2C2CCC(O)CC2)n1 (stereo unspecified) on Homeodomain-interacting protein kinase 1 (Homo sapiens) (UniProt Q86Z02)?
### Response 2.2

### Prompt inhibition of COc1cc(Nc2ncc3c(C)nc(-c4cccc(C(F)(F)F)c4)n3n2)cc(OC)c1OC on Homeodomain-interacting protein kinase 1 (Homo sapiens) (UniProt Q86Z02)?
### Response 4.84

### Prompt inhibition of O=C(Nc1n[nH]c2nc(-c3ccc(O)cc3)c(Br)cc12)C1CC1 on Homeodomain-interacting protein kinase 1 (Homo sapiens) (UniProt Q86Z02)?
### Response 14.7

### Prompt inhibition of COc1cc(Nc2ncc3c(C)nc(-c4cccc(Oc5ccccc5)c4)n3n2)cc(OC)c1OC on Homeodomain-interacting protein kinase 1 (Homo sapiens) (UniProt Q86Z02)?
### Response 0.25

### Prompt inhibition of Cc1ccc(NC(=O)c2ccoc2)cc1-c1ccc(C(=O)NCC2CC2)cc1 on Homeodomain-interacting protein kinase 1 (Homo sapiens) (UniProt Q86Z02)?
### Response -3.48

### Prompt inhibition of NC(=O)c1cc(-c2ccncc2)cc(-c2ccccc2)c1N on Homeodomain-interacting protein kinase 1 (Homo sapiens) (UniProt Q86Z02)?
### Response -1.44
